Answer each item with its documented mass density.
# Stated conditions: 307.4 K; 101.33 kPa; Liquid; Vibrating tube method
Answers are plain numbers, in kg/m3.

[[record]]
molecule = "CCCC(=O)[O-].C[NH2+]CCO [N-methyl-2-hydroxyethylammonium butanoate]"
unit_string = "kg/m3"
observed_measurement = 1033.04

[[record]]
molecule = "CCCCC(=O)[O-].C[NH2+]CCO [2-hydroxy-N-methylethanaminium pentanoate]"
unit_string = "kg/m3"
observed_measurement = 1010.02

[[record]]
molecule = "C[NH2+]CCO.O=C[O-] [2-hydroxy-N-methylethanaminium formate]"
unit_string = "kg/m3"
observed_measurement = 1123.08

[[record]]
molecule = "CCC(=O)[O-].C[NH2+]CCO [2-hydroxy-N-methylethanaminium propionate]"
unit_string = "kg/m3"
observed_measurement = 1065.28

[[record]]
molecule = "CC(=O)[O-].C[NH2+]CCO [N-methyl-2-hydroxyethylammonium acetate]"
unit_string = "kg/m3"
observed_measurement = 1095.29


Requested field: mass density. Item: CC(C)C(=O)[O-].C[NH2+]CCO [2-hydroxy-N-methylethanaminium isobutyrate]
1037.41

----------
# Stated conditions: 334.66 K; 101.33 kPa; Liquid; Pulse-echo method
± gives the expanded uncertainty stated by the source.
Attribute measured: speed of sound
In your response, put the unit directly after the numeric value.

Recorded speed of sound, per entry:
[[record]]
molecule = "CCC(=O)[O-].C[NH2+]CCO [2-hydroxy-N-methylethanaminium propionate]"
attribute_measured = "speed of sound"
observed_measurement = "1581.2 ± 2.1 m/s"

[[record]]
molecule = "C[NH2+]CCO.O=C[O-] [2-hydroxy-N-methylethanaminium formate]"
attribute_measured = "speed of sound"
observed_measurement = "1744.8 ± 2.2 m/s"

[[record]]
molecule = "CCCCC(=O)[O-].C[NH2+]CCO [2-hydroxy-N-methylethanaminium pentanoate]"
attribute_measured = "speed of sound"
observed_measurement = "1436.2 ± 2.1 m/s"

[[record]]
molecule = "CCCC(=O)[O-].C[NH2+]CCO [N-methyl-2-hydroxyethylammonium butanoate]"
attribute_measured = "speed of sound"
observed_measurement = "1500.2 ± 2.1 m/s"


// moving on: another record for speed of sound
Requested field: speed of sound. Item: CC(C)C(=O)[O-].C[NH2+]CCO [2-hydroxy-N-methylethanaminium isobutyrate]
1507.6 ± 2.1 m/s

----------
Answer each item with its documented mass density.
# Stated conditions: 285.15 K; 101.33 kPa; Liquid; Vibrating tube method
Give bare numbers, in kg/m3.

[[record]]
compound = "CC(=O)[O-].C[NH2+]CCO [N-methyl-2-hydroxyethylammonium acetate]"
observed_measurement = 1108.62

[[record]]
compound = "CCCCC(=O)[O-].C[NH2+]CCO [2-hydroxy-N-methylethanaminium pentanoate]"
observed_measurement = 1025

[[record]]
compound = "CCCC(=O)[O-].C[NH2+]CCO [N-methyl-2-hydroxyethylammonium butanoate]"
observed_measurement = 1048.02

[[record]]
compound = "CCC(=O)[O-].C[NH2+]CCO [2-hydroxy-N-methylethanaminium propionate]"
observed_measurement = 1079.75

[[record]]
compound = "C[NH2+]CCO.O=C[O-] [2-hydroxy-N-methylethanaminium formate]"
observed_measurement = 1135.51


// moving on: another record for mass density
Requested field: mass density. Item: CC(C)C(=O)[O-].C[NH2+]CCO [2-hydroxy-N-methylethanaminium isobutyrate]
1051.63

----------
# Stated conditions: 295.9 K; 101.33 kPa; Liquid; Pulse-echo method
Answer each item with its documented speed of sound.
One number for each entry, in m/s.

Recorded speed of sound, per entry:
[[record]]
compound = "CCCCC(=O)[O-].C[NH2+]CCO [2-hydroxy-N-methylethanaminium pentanoate]"
observed_measurement = 1555.9

[[record]]
compound = "C[NH2+]CCO.O=C[O-] [2-hydroxy-N-methylethanaminium formate]"
observed_measurement = 1819.7

[[record]]
compound = "CCCC(=O)[O-].C[NH2+]CCO [N-methyl-2-hydroxyethylammonium butanoate]"
observed_measurement = 1621.7

[[record]]
compound = "CCC(=O)[O-].C[NH2+]CCO [2-hydroxy-N-methylethanaminium propionate]"
observed_measurement = 1696.7


// moving on: another record for speed of sound
Requested field: speed of sound. Item: CC(C)C(=O)[O-].C[NH2+]CCO [2-hydroxy-N-methylethanaminium isobutyrate]
1617.7

----------
# Stated conditions: 326.66 K; 101.33 kPa; Liquid; Pulse-echo method
Attribute measured: speed of sound (m/s)
Answers are plain numbers, in m/s.

[[record]]
compound = "CCCC(=O)[O-].C[NH2+]CCO [N-methyl-2-hydroxyethylammonium butanoate]"
observed_measurement = 1525.3


Give speed of sound for each of the items listed below.
1. CC(C)C(=O)[O-].C[NH2+]CCO [2-hydroxy-N-methylethanaminium isobutyrate]
2. CCC(=O)[O-].C[NH2+]CCO [2-hydroxy-N-methylethanaminium propionate]
3. CCCCC(=O)[O-].C[NH2+]CCO [2-hydroxy-N-methylethanaminium pentanoate]
4. C[NH2+]CCO.O=C[O-] [2-hydroxy-N-methylethanaminium formate]

1: 1530.7; 2: 1605.4; 3: 1460.8; 4: 1759.9

----------
Answer each item with its documented mass density.
# Stated conditions: 320.65 K; 101.33 kPa; Liquid; Vibrating tube method
One number for each entry, in kg/m3.

Recorded mass density, per entry:
[[record]]
compound = "CCC(=O)[O-].C[NH2+]CCO [2-hydroxy-N-methylethanaminium propionate]"
observed_measurement = 1056.5

[[record]]
compound = "CCCCC(=O)[O-].C[NH2+]CCO [2-hydroxy-N-methylethanaminium pentanoate]"
observed_measurement = 1000.97

[[record]]
compound = "CC(C)C(=O)[O-].C[NH2+]CCO [2-hydroxy-N-methylethanaminium isobutyrate]"
observed_measurement = 1028.7

[[record]]
compound = "CCCC(=O)[O-].C[NH2+]CCO [N-methyl-2-hydroxyethylammonium butanoate]"
observed_measurement = 1024


Give mass density for each of the items listed below.
1. CC(=O)[O-].C[NH2+]CCO [N-methyl-2-hydroxyethylammonium acetate]
2. C[NH2+]CCO.O=C[O-] [2-hydroxy-N-methylethanaminium formate]

[1087.17, 1115.72]

----------
# Stated conditions: 319.65 K; 101.33 kPa; Liquid; Pulse-echo method
Attribute measured: speed of sound (m/s)
One number for each entry, in m/s.

Give speed of sound for each of the items listed below.
1. CCCC(=O)[O-].C[NH2+]CCO [N-methyl-2-hydroxyethylammonium butanoate]
2. C[NH2+]CCO.O=C[O-] [2-hydroxy-N-methylethanaminium formate]

1547.2
1773.4

----------
Answer each item with its documented speed of sound.
# Stated conditions: 280.4 K; 101.33 kPa; Liquid; Pulse-echo method
Give bare numbers, in m/s.

Recorded speed of sound, per entry:
[[record]]
molecule = "CCCCC(=O)[O-].C[NH2+]CCO [2-hydroxy-N-methylethanaminium pentanoate]"
attribute_measured = "speed of sound"
observed_measurement = 1608.2

[[record]]
molecule = "C[NH2+]CCO.O=C[O-] [2-hydroxy-N-methylethanaminium formate]"
attribute_measured = "speed of sound"
observed_measurement = 1850.2

[[record]]
molecule = "CCC(=O)[O-].C[NH2+]CCO [2-hydroxy-N-methylethanaminium propionate]"
attribute_measured = "speed of sound"
observed_measurement = 1744.8


Give speed of sound for each of the items listed below.
1. CCCC(=O)[O-].C[NH2+]CCO [N-methyl-2-hydroxyethylammonium butanoate]
2. CC(C)C(=O)[O-].C[NH2+]CCO [2-hydroxy-N-methylethanaminium isobutyrate]

1: 1674.8; 2: 1663.1

----------
Answer each item with its documented mass density.
# Stated conditions: 292.65 K; 101.33 kPa; Liquid; Vibrating tube method
Give bare numbers, in kg/m3.

Recorded mass density, per entry:
[[record]]
molecule = "CCC(=O)[O-].C[NH2+]CCO [2-hydroxy-N-methylethanaminium propionate]"
attribute_measured = "mass density"
unit_string = "kg/m3"
observed_measurement = 1074.83

[[record]]
molecule = "CCCC(=O)[O-].C[NH2+]CCO [N-methyl-2-hydroxyethylammonium butanoate]"
attribute_measured = "mass density"
unit_string = "kg/m3"
observed_measurement = 1042.98

[[record]]
molecule = "CC(=O)[O-].C[NH2+]CCO [N-methyl-2-hydroxyethylammonium acetate]"
attribute_measured = "mass density"
unit_string = "kg/m3"
observed_measurement = 1104.05


Give mass density for each of the items listed below.
1. CCCCC(=O)[O-].C[NH2+]CCO [2-hydroxy-N-methylethanaminium pentanoate]
2. C[NH2+]CCO.O=C[O-] [2-hydroxy-N-methylethanaminium formate]
3. CC(C)C(=O)[O-].C[NH2+]CCO [2-hydroxy-N-methylethanaminium isobutyrate]

1019.95
1131.32
1046.84

----------
# Stated conditions: 300.15 K; 101.33 kPa; Liquid; Pulse-echo method
Answer each item with its documented speed of sound.
Give bare numbers, in m/s.

[[record]]
compound = "CCC(=O)[O-].C[NH2+]CCO [2-hydroxy-N-methylethanaminium propionate]"
unit_string = "m/s"
observed_measurement = 1684.1

[[record]]
compound = "CCCCC(=O)[O-].C[NH2+]CCO [2-hydroxy-N-methylethanaminium pentanoate]"
unit_string = "m/s"
observed_measurement = 1542.5

[[record]]
compound = "CC(C)C(=O)[O-].C[NH2+]CCO [2-hydroxy-N-methylethanaminium isobutyrate]"
unit_string = "m/s"
observed_measurement = 1605.6

[[record]]
compound = "CCCC(=O)[O-].C[NH2+]CCO [N-methyl-2-hydroxyethylammonium butanoate]"
unit_string = "m/s"
observed_measurement = 1608.2


// moving on: another record for speed of sound
Requested field: speed of sound. Item: C[NH2+]CCO.O=C[O-] [2-hydroxy-N-methylethanaminium formate]
1811.4
